- study.system: Thymidine kinase (Human herpesvirus 2, UniProt Q6L709)
- Sequence (Q6L709 whole entry): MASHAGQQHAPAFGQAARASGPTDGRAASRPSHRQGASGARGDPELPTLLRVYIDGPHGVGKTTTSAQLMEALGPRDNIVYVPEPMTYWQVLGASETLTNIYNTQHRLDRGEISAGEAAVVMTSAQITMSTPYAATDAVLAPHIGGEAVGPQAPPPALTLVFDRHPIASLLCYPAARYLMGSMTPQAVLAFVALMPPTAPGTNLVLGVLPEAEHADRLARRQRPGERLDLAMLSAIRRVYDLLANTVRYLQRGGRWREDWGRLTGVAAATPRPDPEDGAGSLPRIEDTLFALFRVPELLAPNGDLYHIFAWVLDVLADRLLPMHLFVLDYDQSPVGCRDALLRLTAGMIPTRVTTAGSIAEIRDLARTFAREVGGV
reported.metric: pIC50
Numbers only, as −log10 of the molar value.

Some entries whose results are on file:
Field pIC50 (system: Thymidine kinase (Human herpesvirus 2, UniProt Q6L709)) for entry CCc1cn([C@H]2C[C@H](O)[C@@H](CNC(=O)C3c4ccccc4CCc4ccccc43)O2)c(=O)[nH]c1=O = 7.36

Field pIC50 (system: Thymidine kinase (Human herpesvirus 2, UniProt Q6L709)) for entry CCc1cn([C@@H]2O[C@H](CNC(=O)[C@H](C)Oc3cc(OC)c(Cl)cc3Cl)[C@@H](O)[C@@H]2F)c(=O)[nH]c1=O = 9.72

Field pIC50 (system: Thymidine kinase (Human herpesvirus 2, UniProt Q6L709)) for entry CCc1cn([C@H]2C[C@H](O)[C@@H](CNC(=O)Cc3ccccc3-c3ccccc3)O2)c(=O)[nH]c1=O = 7.05

Field pIC50 (system: Thymidine kinase (Human herpesvirus 2, UniProt Q6L709)) for entry CCc1cn([C@@H]2O[C@H](CNC(=O)C3c4ccccc4Oc4c(C)cccc43)[C@@H](O)[C@@H]2F)c(=O)[nH]c1=O (stereo not given in full) = 9.72

Field pIC50 (system: Thymidine kinase (Human herpesvirus 2, UniProt Q6L709)) for entry CCc1cn([C@H]2C[C@H](O)[C@@H](CNC(=O)Cc3ccccc3F)O2)c(=O)[nH]c1=O = 6.85

Field pIC50 (system: Thymidine kinase (Human herpesvirus 2, UniProt Q6L709)) for entry CCc1cn([C@H]2C[C@H](O)[C@@H](CNC(=O)C3c4ccccc4S(=O)(=O)c4ccccc43)O2)c(=O)[nH]c1=O = 9.89

Field pIC50 (system: Thymidine kinase (Human herpesvirus 2, UniProt Q6L709)) for entry CCc1cn([C@H]2C[C@H](O)[C@@H](CNC(=O)Cc3ccccc3OC)O2)c(=O)[nH]c1=O = 7.15

Field pIC50 (system: Thymidine kinase (Human herpesvirus 2, UniProt Q6L709)) for entry CCc1cn([C@H]2C[C@H](O)[C@@H](CNC(=O)C3c4ccccc4N(C)c4ccccc43)O2)c(=O)[nH]c1=O = 8.59

Field pIC50 (system: Thymidine kinase (Human herpesvirus 2, UniProt Q6L709)) for entry CCc1cn([C@@H]2O[C@H](CNC(=O)C3c4ccccc4Oc4c3cccc4C(F)(F)F)[C@@H](O)[C@@H]2F)c(=O)[nH]c1=O (stereo not given in full) = 9.85

Field pIC50 (system: Thymidine kinase (Human herpesvirus 2, UniProt Q6L709)) for entry CCc1cn([C@H]2C[C@H](O)[C@@H](CNC(=O)Cc3ccccc3C(F)(F)F)O2)c(=O)[nH]c1=O = 7.05

Answer for every listed entry: what is its pIC50? The entries follow.
1. CCc1cn([C@H]2C[C@H](O)[C@@H](CNC(=O)Cc3c(C)cccc3C)O2)c(=O)[nH]c1=O
2. CCc1cn([C@H]2C[C@H](O)[C@@H](CNC(=O)Cc3ccccc3C)O2)c(=O)[nH]c1=O
3. CCc1cn([C@H]2C[C@H](O)[C@@H](CNC(=O)C3c4ccccc4Cc4ccccc43)O2)c(=O)[nH]c1=O
4. CCc1cn([C@@H]2O[C@H](CNC(=O)C3c4ccccc4S(=O)(=O)c4ccccc43)[C@@H](O)[C@@H]2F)c(=O)[nH]c1=O
5. CCc1cn([C@@H]2O[C@H](CNC(=O)C3c4ccccc4Sc4ccccc43)[C@@H](O)[C@@H]2F)c(=O)[nH]c1=O

[8.08, 7.22, 8.92, 9.96, 9.15]

----------
Hi there, I'd appreciate the recorded pIC50 for every entry that follows.
- study.system: Thymidine kinase (Human herpesvirus 1 (strain SC16) (HHV-1) (Human herpes simplex virus1), UniProt P06479)
- Sequence (P06479 whole entry): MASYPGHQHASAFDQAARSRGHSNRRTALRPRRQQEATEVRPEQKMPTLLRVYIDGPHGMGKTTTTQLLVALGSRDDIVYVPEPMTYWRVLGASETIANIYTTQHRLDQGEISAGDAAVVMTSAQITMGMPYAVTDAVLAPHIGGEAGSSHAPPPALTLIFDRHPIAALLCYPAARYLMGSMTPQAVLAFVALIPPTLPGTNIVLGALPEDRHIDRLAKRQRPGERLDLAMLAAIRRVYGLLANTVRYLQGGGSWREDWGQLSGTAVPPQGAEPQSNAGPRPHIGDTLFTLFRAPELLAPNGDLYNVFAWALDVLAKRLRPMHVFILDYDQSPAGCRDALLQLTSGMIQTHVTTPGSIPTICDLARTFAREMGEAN
- test.details: Inhibitory activity against HSV-1 Thymidine Kinase (HSV-1 TK)
Numbers only, as −log10 of the molar value.

Answer for every listed entry: what is its pIC50? The entries follow.
1. CCc1cn([C@H]2C[C@H](O)[C@@H](CNC(=O)C3c4ccccc4CCc4ccccc43)O2)c(=O)[nH]c1=O
2. CCc1cn([C@@H]2O[C@H](CNC(=O)C3c4ccccc4C(C(F)(F)F)(C(F)(F)F)c4ccccc43)[C@@H](O)[C@@H]2F)c(=O)[nH]c1=O
3. CCc1cn([C@H]2C[C@H](O)[C@@H](CNC(=O)c3c4ccccc4cc4ccccc34)O2)c(=O)[nH]c1=O
4. CCc1cn([C@H]2C[C@H](O)[C@@H](CNC(=O)Cc3c(Cl)cccc3Cl)O2)c(=O)[nH]c1=O

1: 6.59; 2: 9.72; 3: 5.78; 4: 9.00

Origin of measurements: ChEMBL document CHEMBL1134111
